TEST SYSTEM: HNE (human neutrophil elastase) (Homo sapiens)
Sequence (P08246 30-267): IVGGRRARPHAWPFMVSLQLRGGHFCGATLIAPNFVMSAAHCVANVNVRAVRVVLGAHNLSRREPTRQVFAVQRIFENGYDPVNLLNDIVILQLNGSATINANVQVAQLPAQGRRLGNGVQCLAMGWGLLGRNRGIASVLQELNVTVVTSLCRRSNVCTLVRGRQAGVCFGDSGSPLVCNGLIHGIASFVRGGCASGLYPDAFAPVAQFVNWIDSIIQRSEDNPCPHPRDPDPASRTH
ASSAY PROTOCOL: HNE inhibition assay (fluorogenic substrate cleavage)
ASSAY CONTEXT: mean ± SD of three independent experiments; NA: no inhibitory activity at the highest concentration tested (50 µM)
The label MET is reserved for IC50 strictly under 200 nM; NOT MET covers values equal to or above it.

- COMPOUND: "Cc1cccc(C(=O)n2oc(=O)c(-c3ccc([N+](=O)[O-])cc3)c2C)c1"
  CLASS ASSIGNMENT: "NOT MET"
- COMPOUND: "Cc1c(-c2ccccc2)n(C(=O)C2CC2)oc1=O"
  CLASS ASSIGNMENT: "NOT MET"
- COMPOUND: "Cc1cccc(C(=O)n2oc(=O)c(-c3ccccc3)c2-c2ccccc2)c1"
  CLASS ASSIGNMENT: "NOT MET"
- COMPOUND: "Cc1c(-c2ccccc2)c(=O)on1C(=O)c1cccc(C#N)c1"
  CLASS ASSIGNMENT: "NOT MET"
- COMPOUND: "Cc1ccc(C(=O)n2oc(=O)c(-c3ccccc3)c2C)cc1"
  CLASS ASSIGNMENT: "NOT MET"
- COMPOUND: "O=C(C1CC1)n1oc(=O)c(-c2ccccc2)c1-c1ccccc1"
  CLASS ASSIGNMENT: "NOT MET"
- COMPOUND: "Cc1c(-c2ccccc2)c(=O)on1C(=O)c1ccc(NC(=O)C(C)(C)C)cc1"
  CLASS ASSIGNMENT: "NOT MET"
- COMPOUND: "CC(=O)Nc1ccc(-c2c(C)n(C(=O)c3cccc(C)c3)oc2=O)cc1"
  CLASS ASSIGNMENT: "MET"
- COMPOUND: "Cc1cccc(C(=O)n2oc(=O)c(-c3ccc(NC(=O)C4CC4)cc3)c2C)c1"
  CLASS ASSIGNMENT: "MET"
- COMPOUND: "O=C(C1CC1)n1oc(=O)cc1-c1ccccc1"
  CLASS ASSIGNMENT: "NOT MET"
- COMPOUND: "Cc1cccc(C(=O)n2oc(=O)c(-c3ccccc3)c2C)c1"
  CLASS ASSIGNMENT: "MET"
- COMPOUND: "Cc1c(-c2ccccc2)c(=O)on1C(=O)c1ccc(C#N)cc1"
  CLASS ASSIGNMENT: "NOT MET"
- COMPOUND: "Cc1c(-c2ccccc2)c(=O)on1C(=O)c1ccc(OC(=O)C(C)(C)C)cc1"
  CLASS ASSIGNMENT: "NOT MET"
- COMPOUND: "Cc1cccc(C(=O)n2oc(=O)c(C)c2-c2ccccc2)c1"
  CLASS ASSIGNMENT: "NOT MET"
- COMPOUND: "CCC(=O)n1oc(=O)c2ccccc21 [Compound 10a, 1-Propionylbenzo[c]isoxazol-3(1H)-one]"
  CLASS ASSIGNMENT: "NOT MET"
- COMPOUND: "CC(=O)Nc1ccc(-c2cc(=O)on2C(=O)c2cccc(C)c2)cc1"
  CLASS ASSIGNMENT: "NOT MET"
- COMPOUND: "Cc1c(-c2ccccc2)c(=O)on1C(=O)C1CC1"
  CLASS ASSIGNMENT: "MET"
- COMPOUND: "Cc1cccc(C(=O)n2oc(=O)cc2-c2ccccc2)c1"
  CLASS ASSIGNMENT: "NOT MET"
- COMPOUND: "Cc1ccccc1C(=O)n1oc(=O)c(-c2ccccc2)c1C"
  CLASS ASSIGNMENT: "NOT MET"
- COMPOUND: "Cc1cccc(C(=O)n2oc(=O)c3ccccc32)c1 [Compound 10c]"
  CLASS ASSIGNMENT: "NOT MET"
- COMPOUND: "Cc1cccc(C(=O)Oc2onc(C)c2-c2ccc(C#N)cc2)c1"
  CLASS ASSIGNMENT: "NOT MET"
- COMPOUND: "Cc1c(-c2ccccc2)c(=O)on1C(=O)c1cccc(S(C)(=O)=O)c1"
  CLASS ASSIGNMENT: "NOT MET"
- COMPOUND: "Cc1cccc(C(=O)n2oc(=O)c(-c3ccc(C#N)cc3)c2C)c1"
  CLASS ASSIGNMENT: "MET"
- COMPOUND: "CC(=O)Nc1ccc(-c2c(C)noc2OC(=O)c2cccc(C)c2)cc1"
  CLASS ASSIGNMENT: "NOT MET"
- COMPOUND: "Cc1c(-c2ccccc2)c(=O)on1S(=O)(=O)c1ccc(OC(=O)C(C)(C)C)cc1"
  CLASS ASSIGNMENT: "MET"
- COMPOUND: "Cc1cccc(C(=O)Oc2onc(C)c2-c2ccc(NC(=O)C3CC3)cc2)c1"
  CLASS ASSIGNMENT: "NOT MET"
- COMPOUND: "Cc1ccc(-c2c(C)n(C(=O)c3cccc(C)c3)oc2=O)cc1"
  CLASS ASSIGNMENT: "MET"

Data origin, for the record: paper PMC6032016
